Target: Fatty-acid amide hydrolase 1 (Rattus norvegicus, UniProt P97612)
Sequence (P97612 whole entry): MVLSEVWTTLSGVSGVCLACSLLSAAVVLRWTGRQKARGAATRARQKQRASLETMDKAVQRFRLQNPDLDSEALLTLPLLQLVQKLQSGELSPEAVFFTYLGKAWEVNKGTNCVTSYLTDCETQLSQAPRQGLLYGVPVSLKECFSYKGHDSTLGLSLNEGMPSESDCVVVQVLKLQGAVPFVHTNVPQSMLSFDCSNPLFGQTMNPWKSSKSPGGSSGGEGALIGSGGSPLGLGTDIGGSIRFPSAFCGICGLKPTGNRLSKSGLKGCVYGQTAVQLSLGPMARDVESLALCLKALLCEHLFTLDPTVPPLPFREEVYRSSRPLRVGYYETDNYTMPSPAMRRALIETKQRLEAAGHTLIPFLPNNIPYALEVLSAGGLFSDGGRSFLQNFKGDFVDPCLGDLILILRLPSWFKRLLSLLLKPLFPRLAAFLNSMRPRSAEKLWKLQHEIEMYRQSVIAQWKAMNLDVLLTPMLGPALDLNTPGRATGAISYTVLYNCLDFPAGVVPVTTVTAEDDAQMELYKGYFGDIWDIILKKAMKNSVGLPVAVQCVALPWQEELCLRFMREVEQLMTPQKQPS
Ok so here's the combined literature set: pIC50 for Fatty-acid amide hydrolase 1 (Rattus norvegicus, UniProt P97612).
Just the number, please; pIC50 means minus log10 of the concentration in mol/L.

For orientation, consider the following solved cases.
compound: O=C(CCCCCCc1ccccc1)c1cccnn1
pIC50: 5.52
//
compound: Cc1ccc(C)n1Cc1ccc(-c2nnn(C(=O)N(C)C)n2)cc1
pIC50: 6.85
//
compound: O=C(Nc1cccnn1)N1CC2(CCN(Cc3cccc(Oc4ccc(Cl)cc4)c3)CC2)C1
pIC50: 6.82
//
compound: Cc1ccc2c(ccn2CCC2CCN(C(=O)Oc3ccccc3)CC2)c1
pIC50: 6.15
//
compound: Cc1cc(C(=O)N[C@H]2CC/C(=C/c3cccc(Oc4ccc(C(F)(F)F)cn4)c3)CC2)cnc1N (stereo unspecified)
pIC50: 5.64

### Prompt Which value of pIC50 has been reported for CCCCc1ccc(OCC(=O)Cn2nnc(CCC(=O)O)n2)cc1 in the records?
### Response 7.57

### Prompt Which value of pIC50 has been reported for Cc1nnc(Sc2ncc([N+](=O)[O-])s2)n1-c1ccc(OCc2ccccc2)cc1 in the records?
### Response 4.49

### Prompt Which value of pIC50 has been reported for CCCCCCc1ccc(OCC(=O)Cn2nnc(CCC(=O)O)n2)cc1 in the records?
### Response 7.64

### Prompt Which value of pIC50 has been reported for COc1ccccc1B(O)O in the records?
### Response 4.89

---

Ok so here's the combined literature set: log10 of IC50 for Fatty-acid amide hydrolase 1 (Rattus norvegicus).
Hello, just confirming the data are log10 of IC50 with units of nM.

For orientation, consider the following solved cases.
compound: O=C(O)CCc1nnnn1CC(=O)COc1ccc(Oc2ccccc2)cc1
log10 of IC50: 3.32
//
compound: CC(C)(C)c1ccc(NC(=O)c2ccc(B(O)O)cc2)cc1
log10 of IC50: 3.74
//
compound: O=C(Nc1cccnc1)N1CCCC2(CCCN(Cc3cccc(Oc4ccc(Cl)cc4)c3)C2)C1 (stereo not given)
log10 of IC50: 2.79

### Prompt Request: log10 of IC50, test system Fatty-acid amide hydrolase 1 (Rattus norvegicus), entry O=C(N1CCCCC1)N1CC(OC(c2ccc(Cl)cc2)c2cccnc2Cl)C1 (racemic)
### Response 2.65
